Sourced from PubChem BioAssay AID488969

- assayed_system: Metabotropic glutamate receptor 8 (Rattus norvegicus)
- assay_summary: mGluR8 Gi/Go-coupled signaling modulation – cell-based, rat, thallium flux, HTS, primary screen (AID 488969)
- condition_notes: HEK293 rat mGluR8, GIRK thallium flux, FluoZin2; at 10 µM; stronger effect = higher value; submaximal glutamate (EC20) added with thallium
Whole data set: some 110,000 compounds, median “z-score” near -0.1, cut for the highest 2% near 2. This excerpt belongs to a sample that is enriched for the highest values.
readout_kind: z-score
# print the numeric value only

INPUT: Reported z-score for Metabotropic glutamate receptor 8 (Rattus norvegicus), given "CN(C)CCNS(=O)(=O)c1ccc(Cl)cc1" ?
OUTPUT: 1.34

INPUT: Here is the next compound: "Cn1c(NC(=O)c2cccs2)c(-c2cccs2)c(=O)c2ccccc21"
OUTPUT: 0.899

INPUT: Here is the next compound: "CCOC(=O)Nc1nnc(-c2ccc(OC)cc2)s1"
OUTPUT: 0.0823

INPUT: Here is the next compound: "Cc1cccc2cc(/C=N/NC(=O)c3ccccc3O)c(Cl)nc12"
OUTPUT: 0.0387

INPUT: Here is the next compound: "Cc1ccc(-n2c(SCC(N)=O)nnc2-c2ccccn2)cc1C"
OUTPUT: 0.0328

INPUT: Here is the next compound: "Cc1ccc(C)c(-n2c(SCC(N)=O)nnc2-c2ccccn2)c1"
OUTPUT: -0.142

INPUT: Here is the next compound: "Cc1ccc(S(=O)(=O)NCCCCCC(=O)N(C)C)cc1"
OUTPUT: 2.19

INPUT: Here is the next compound: "CNC(=O)CCCCCNS(=O)(=O)c1ccc(C)cc1"
OUTPUT: 0.0156

INPUT: Here is the next compound: "COc1cccc(C(=O)OCc2ccccc2C#N)c1O"
OUTPUT: -0.163

INPUT: Here is the next compound: "COc1ccc(-n2cc(C(=O)O)c3ccccc3c2=O)cc1"
OUTPUT: 2.28

INPUT: Here is the next compound: "COC(=O)c1cn(-c2ccc(Cl)cc2)c(=O)c2ccccc12"
OUTPUT: -0.29

INPUT: Here is the next compound: "Cc1ccc(-n2c(SCC(N)=O)nnc2-c2ccccn2)cc1"
OUTPUT: 2.09

###

- assayed_system: Metabotropic glutamate receptor 8 (Rattus norvegicus)
- assay_summary: mGluR8 Gi/Go-coupled signaling modulation – cell-based, rat, thallium flux, HTS, primary screen (AID 488969)
- condition_notes: HEK293 rat mGluR8, GIRK thallium flux, FluoZin2; at 10 µM; stronger effect = higher value; submaximal glutamate (EC20) added with thallium
Whole data set: some 110,000 compounds, median “z-score” near -0.1, cut for the highest 2% near 2. What follows is part of a selection rich in the highest values, with near analogues and random picks from the rest. The source made the active and inactive calls.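 How the source made its calls: active means z-score in the third read window above 3 or below -3; inactive means the rest.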
readout_kind: z-score

INPUT: Which z-score value belongs to "CCc1ccccc1NC(=S)NCc1ccc2c(c1)OCO2" ?
OUTPUT: -0.0875

INPUT: Here is the next molecule: CCc1[nH]nc2c1C(c1ccncc1)C(C#N)=C(N)O2 (stereo unspecified)
OUTPUT: 0.499

INPUT: Here is the next molecule: Cc1nc(SC2CCOC2=O)c2c(C)c(C)sc2n1 (stereo unspecified)
OUTPUT: 4.12 (active)

INPUT: Here is the next molecule: NC(=O)c1ccc(NC(=O)COC(=O)CC(NC(=O)c2ccccc2Cl)c2ccccc2)cc1 (stereo unspecified)
OUTPUT: 1.26

INPUT: Here is the next molecule: "COc1cc(-c2nc(-c3ccc(Br)o3)no2)cc(OC)c1OC"
OUTPUT: -0.294

INPUT: Here is the next molecule: "CCOC(=O)c1c(C)nc2sc3c(=O)n(-c4ccc(C(C)=O)cc4)cnc3c2c1-c1ccc(Cl)cc1"
OUTPUT: -0.533

###

Would you kindly list z-score for each of these molecules?
- assayed_system: Metabotropic glutamate receptor 8 (Rattus norvegicus)
- assay_summary: mGluR8 Gi/Go-coupled signaling modulation – cell-based, rat, thallium flux, HTS, primary screen (AID 488969)
- condition_notes: HEK293 rat mGluR8, GIRK thallium flux, FluoZin2; at 10 µM; stronger effect = higher value; submaximal glutamate (EC20) added with thallium
In all, about 110,000 compounds were measured (“z-score”: median about -0.1, highest 2% from about 2 on). What follows is part of a selection rich in the highest values, with near analogues and random picks from the rest.
# print the numeric value only

INPUT: Which z-score value belongs to Cc1ccc(S(=O)(=O)N2CCCC2C(=O)O)cc1 (stereo not given) ?
OUTPUT: 0.451

INPUT: Here is the next molecule: "CC(C)NS(=O)(=O)c1ccc(OCC(=O)Nc2ccc3c(c2)OCO3)c(Cl)c1"
OUTPUT: 3.09

INPUT: Here is the next molecule: CCCOc1ccc(N2C(=O)CC(N3CCN(c4ccccc4OC)CC3)C2=O)cc1 (stereo not given)
OUTPUT: -0.446

INPUT: Here is the next molecule: CC(CNCC1CCCO1)COc1cccc2ccccc12 (stereo not given)
OUTPUT: 0.285

INPUT: Here is the next molecule: "O=C(COc1ccc(S(=O)(=O)NC2CCCCC2)cc1Cl)Nc1ccc2c(c1)OCO2"
OUTPUT: 0.2

INPUT: Here is the next molecule: "CC(C)CNS(=O)(=O)c1ccc(OCC(=O)Nc2ccc3c(c2)OCO3)c(Cl)c1"
OUTPUT: -0.19

INPUT: Here is the next molecule: "Cc1ccc(S(=O)(=O)N(C)C)cc1NC(=O)COC(=O)c1ccc2c(c1)OCO2"
OUTPUT: 1.63

INPUT: Here is the next molecule: "CCOCCN1CCN(c2c(CC)c(C)nc3cc(-c4cc(OC)cc(OC)c4)nn23)CC1"
OUTPUT: -0.938

INPUT: Here is the next molecule: "Cc1ccc(NC(=O)COC(=O)c2ccc3c(c2)OCO3)cc1S(=O)(=O)N1CCCCC1"
OUTPUT: -0.401

INPUT: Here is the next molecule: "Cc1ccc(S(=O)(=O)/N=C(/NC(=S)Nc2ccccc2)c2ccccc2)cc1"
OUTPUT: 0.34

###

- assayed_system: Metabotropic glutamate receptor 8 (Rattus norvegicus)
- assay_summary: mGluR8 Gi/Go-coupled signaling modulation – cell-based, rat, thallium flux, HTS, primary screen (AID 488969)
- condition_notes: HEK293 rat mGluR8, GIRK (G protein-gated inwardly rectifying potassium channel) thallium flux, FluoZin2; at 10 µM; stronger effect = higher value; submaximal glutamate (EC20) added with thallium
The full ranking holds about 110,000 compounds; the median of “z-score” is about -0.1, and the highest 2% start at about 2. The sample holds the highest values, similar compounds and a random draw of the others, so the mix is not that of the screen. Activity calls are given as the source filed them.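 The calls were made as follows: active = z-score in the third read window above 3 or below -3; inactive = the rest.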
Would you kindly list z-score for each of these compounds?

INPUT: Which z-score value belongs to "S=c1[nH]nc(CSc2nc3ccccc3s2)n1C1CCCCC1" ?
OUTPUT: 14.9 (active)

INPUT: Here is the next compound: "CCCn1nnc(NC(=O)COc2ccc(C3CCCCC3)cc2)n1"
OUTPUT: 2.04

INPUT: Here is the next compound: Cc1ccc(S(=O)(=O)/N=S(/C)c2ccccc2)cc1 (stereo not drawn)
OUTPUT: 0.693

INPUT: Here is the next compound: "CCCCn1nnc(NC(=O)COc2cc(C)ccc2C(C)C)n1"
OUTPUT: 1.04

INPUT: Here is the next compound: "CCCn1nnc(NC(=O)COc2ccc(Cl)cc2)n1"
OUTPUT: -0.244

INPUT: Here is the next compound: "CCn1nnc(NC(=O)COc2cc(C)ccc2C(C)C)n1"
OUTPUT: -0.0287

INPUT: Here is the next compound: "CC(C)c1ccc2[nH]c(O)c(N=NC(=O)c3cccc(S(=O)(=O)N4CCCCC4)c3)c2c1"
OUTPUT: -0.156

INPUT: Here is the next compound: CCOC(=O)C1CCCN(C(=O)c2cn(CC(C)C)c(=O)c3cc(OC)c(OC)cc23)C1 (stereo not drawn)
OUTPUT: -0.759

INPUT: Here is the next compound: COc1ccc(NC2CS(=O)(=O)CC2NCc2ccccc2)cc1 (stereo not drawn)
OUTPUT: 0.261

INPUT: Here is the next compound: "CCCN1CCN(C(=O)c2cn(CC(C)C)c(=O)c3cc(OC)c(OC)cc23)CC1"
OUTPUT: -0.37

INPUT: Here is the next compound: "COc1ccc(S(=O)(=O)N(CCc2ccccc2)CC(=O)O)cc1Cl"
OUTPUT: -0.104

INPUT: Here is the next compound: "Cc1ccc(CNC(=O)c2cc3c(C)nc4ccccc4c3o2)cc1"
OUTPUT: 0.19

INPUT: Here is the next compound: "CCn1nnc(NC(=O)COc2ccc(C3CCCCC3)cc2)n1"
OUTPUT: 2.13

INPUT: Here is the next compound: CCOc1ccc(-n2c(=S)sc3c(=O)[nH]c(SCC(=O)NC(C)CC)nc32)cc1 (stereo not drawn)
OUTPUT: -0.859

INPUT: Here is the next compound: "Clc1ccc(C2=Nn3c(nnc3-c3cccs3)SC2)cc1"
OUTPUT: -0.153

INPUT: Here is the next compound: "CCCOc1ccc(-c2csc(N)n2)cc1[N+](=O)[O-]"
OUTPUT: -0.349

INPUT: Here is the next compound: "CCCn1c(C)cc(/C=C(\C#N)C(=O)OCC(=O)Nc2cc(OC)c(OC)c(OC)c2)c1C"
OUTPUT: -0.21

INPUT: Here is the next compound: "Cn1c(CSc2nc3ccccc3s2)n[nH]c1=S"
OUTPUT: 1.41

INPUT: Here is the next compound: "COc1cc2c(C(=O)N3CCN(C4CCCCC4)CC3)cn(CC(C)C)c(=O)c2cc1OC"
OUTPUT: 2.68

INPUT: Here is the next compound: "CCCCn1c(SCC(=O)Nc2cc(C)on2)nnc1-c1ccco1"
OUTPUT: 1.3

INPUT: Here is the next compound: "CCCn1c(C)cc(/C=C(\C#N)C(=O)OCC(=O)Nc2cccc(OC)c2)c1C"
OUTPUT: 3.42 (active)

INPUT: Here is the next compound: "CCCCn1nnc(NC(=O)COc2ccc(Cl)c(C)c2)n1"
OUTPUT: 0.0561

INPUT: Here is the next compound: "CCn1c(CSc2nc3ccccc3s2)n[nH]c1=S"
OUTPUT: 0.155
